Target: T1, Full length recombinant HBcAg (rHBcAg) encompassing residues 1-183 (hepatitis B virus, UniProt P03146 1-183)
T1 construct: range 1-183; also called hepatitis B virus core antigen
T1 sequence (P03146 whole entry, the tested form may be a part): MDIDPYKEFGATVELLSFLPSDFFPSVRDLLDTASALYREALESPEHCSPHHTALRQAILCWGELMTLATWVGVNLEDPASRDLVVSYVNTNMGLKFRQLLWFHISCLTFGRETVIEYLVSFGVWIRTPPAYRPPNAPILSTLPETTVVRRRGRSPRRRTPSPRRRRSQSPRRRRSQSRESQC
Assay: competition EIA, HBcAg coated 5 ug/ml, peptide 100 ug/ml together with mAb 4-2 (competitor); OD of bound mAb
OD at 490 nm values, listed per item
Numeric answer only, unit OD assumed.

# OD at 490 nm of LAVSLGQRATISCRASQSVS [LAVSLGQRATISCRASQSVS (SEQ. ID. No. 16)] = 0.891

response.value for CKASGYSFTGYNMNWVKQSH (also called Peptide # 26) [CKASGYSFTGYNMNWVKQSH (SEQ. ID. No. 29)] (field: OD at 490 nm) = 0.947

Recorded result, QQKPGQPPKLLIKYASNLES [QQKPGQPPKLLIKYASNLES (SEQ. ID. No. 19)] , OD at 490 nm: 1.11

Item: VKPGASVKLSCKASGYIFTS (also called Peptide # 2; Pept. #2) [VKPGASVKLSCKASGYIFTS (SEQ. ID. No. 5)] | OD at 490 nm: 0.194

// OD at 490 nm lookup, binder = ISCRASQSVSTSSYSYMHWY [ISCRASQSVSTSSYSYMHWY (SEQ. ID. No. 17)] , result: 1.46

Briefly, OD at 490 nm measured for VKPGASVKISCKASGYSFTG (also called Peptide # 25) [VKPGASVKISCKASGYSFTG (SEQ. ID. No. 28)] : 0.91
